- SUBJECT OF TEST: T1, human PCSK9 (proprotein convertase subtilisin kexin type 9) (human, UniProt Q8NBP7 31-692)
- T1 construct: immobilized directly (ProteOn), biotinylated (Octet) or in solution, according to the assay; also called hPCSK9; PCSK9-AF647 (labelled form)
- MEASUREMENT NOTES: PCSK9:EGFA FRET, competitor EGFA peptide
pEC50: −log10 of the molar value.
EXPERIMENTAL READOUT: pEC50

binder="2382F08 (designed binder) MGVSDVPRDLEVVAATPTSLLISWDAPAEAYGYYRITYGETGGNSPVQEFTVPVSKGTATISGLKPGVDYTITVYAVEFTYPGSGYYHRPISINYRTEIDKPSQHHHHHH" meas_value=8.60
binder="1922G04(R25D) (designed binder) MGVSDVPRDLEVVAATPTSLLISWDPPSHAYGYYRITYGETGGNSPVQEFTVPIGKGTATISGLKPGVDYTITVYAVEYPWKGSGYYHRPISINYRTGSGSHHHHHH" meas_value=8.60

1: 1923B02 (designed binder) MGVSDVPRDLEVVAATPTSLLISWTPPPKGYGYYRITYGETGGNSPVQEFTVPVGEGTATISGLKPGVDYTITVYAVEYTYNGAGYYHRPISINYRTEIDKPSQHHHHHH
2: 2451H07 (designed binder) MGITDVPRDLEVVAATPTSLLISWNPPDVNYGYYRITYGETGGNSPLQEFTVPVSKGTATISGLKPGVDYTITVYAVEYPYAHAGYYHRPISINYRTEIDKPSQHHHHHH
Q: Lowest pEC50? choose 1 or 2 Record your answer as the label of the chosen record.
A: 1
